testTarget: human Tissue Factor on MDA-MB-231 cells (human, UniProt P13726 33-295)
procedureDetails: cell-based or functional assay
valueType: % IL8, 100 nM Ab (%)
Could you give me the number in %? Just the number is fine.

For the binder 25G1 (antibody, human IgG1, kappa, V domains shown) VH: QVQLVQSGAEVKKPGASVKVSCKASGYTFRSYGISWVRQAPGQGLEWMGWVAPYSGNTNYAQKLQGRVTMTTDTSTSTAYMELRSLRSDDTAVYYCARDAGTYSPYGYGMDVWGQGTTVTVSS VL: DIQMTQSPSTLSASVGDRVTITCRASHSIDSWLAWYQQKPGKAPKLLIYKASYLESGVPSRFSGSGSGTEFTLTISSLQPDDFATYYCQLFQSLPPFTFGGGTKVEIKR , report % IL8, 100 nM Ab. 9

For the binder 25A (antibody, V domains shown, Human anti-TF IgG1) VH: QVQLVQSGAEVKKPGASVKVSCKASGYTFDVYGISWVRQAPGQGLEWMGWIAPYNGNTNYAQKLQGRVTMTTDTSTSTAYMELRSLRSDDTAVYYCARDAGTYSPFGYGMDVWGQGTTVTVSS VL: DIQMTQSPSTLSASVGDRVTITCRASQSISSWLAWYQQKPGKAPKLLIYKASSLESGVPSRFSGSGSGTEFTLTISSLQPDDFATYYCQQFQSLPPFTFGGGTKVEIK , report % IL8, 100 nM Ab. 9

For the binder 54E (antibody, V domains shown, Human anti-TF IgG1) VH: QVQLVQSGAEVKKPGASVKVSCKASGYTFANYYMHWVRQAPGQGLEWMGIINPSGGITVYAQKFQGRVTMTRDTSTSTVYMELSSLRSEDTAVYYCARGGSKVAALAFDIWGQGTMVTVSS VL: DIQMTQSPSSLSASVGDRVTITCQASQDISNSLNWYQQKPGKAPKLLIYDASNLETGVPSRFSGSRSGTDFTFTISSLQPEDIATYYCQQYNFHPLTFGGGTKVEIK , report % IL8, 100 nM Ab. 2

For the binder 39A (antibody, V domains shown, Human anti-TF IgG1) VH: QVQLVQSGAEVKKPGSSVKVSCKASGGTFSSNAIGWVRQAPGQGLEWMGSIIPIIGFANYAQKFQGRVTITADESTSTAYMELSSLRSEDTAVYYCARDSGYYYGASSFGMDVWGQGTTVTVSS VL: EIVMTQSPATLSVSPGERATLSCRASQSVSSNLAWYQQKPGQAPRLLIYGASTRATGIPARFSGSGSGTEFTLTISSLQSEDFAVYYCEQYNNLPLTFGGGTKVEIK , report % IL8, 100 nM Ab. 3

For the binder 25G9 (antibody, human IgG1, kappa, V domains shown) VH: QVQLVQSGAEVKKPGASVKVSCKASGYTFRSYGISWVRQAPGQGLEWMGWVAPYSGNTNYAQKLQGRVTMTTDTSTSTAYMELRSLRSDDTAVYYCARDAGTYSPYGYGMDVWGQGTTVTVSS VL: DIQMTQSPSTLSASVGDRVTITCQASQSIDSWLAWYQQKPGKAPKLLIYSASYLESGVPSRFSGSGSGTEFTLTISSLQPDDFATYYCQRFQSLPPFTFGGGTKVEIKR , report % IL8, 100 nM Ab. 13
